Task for the reader: assign each of the following binders its reported Kd.
Target: T1, human TfR extracellular domain with N-terminal His tag (human, UniProt P02786 89-760)
T1 construct: Biotinylated in some assays; also called huTfR; HuTfR
T1 sequence (P02786 89-760 G142S): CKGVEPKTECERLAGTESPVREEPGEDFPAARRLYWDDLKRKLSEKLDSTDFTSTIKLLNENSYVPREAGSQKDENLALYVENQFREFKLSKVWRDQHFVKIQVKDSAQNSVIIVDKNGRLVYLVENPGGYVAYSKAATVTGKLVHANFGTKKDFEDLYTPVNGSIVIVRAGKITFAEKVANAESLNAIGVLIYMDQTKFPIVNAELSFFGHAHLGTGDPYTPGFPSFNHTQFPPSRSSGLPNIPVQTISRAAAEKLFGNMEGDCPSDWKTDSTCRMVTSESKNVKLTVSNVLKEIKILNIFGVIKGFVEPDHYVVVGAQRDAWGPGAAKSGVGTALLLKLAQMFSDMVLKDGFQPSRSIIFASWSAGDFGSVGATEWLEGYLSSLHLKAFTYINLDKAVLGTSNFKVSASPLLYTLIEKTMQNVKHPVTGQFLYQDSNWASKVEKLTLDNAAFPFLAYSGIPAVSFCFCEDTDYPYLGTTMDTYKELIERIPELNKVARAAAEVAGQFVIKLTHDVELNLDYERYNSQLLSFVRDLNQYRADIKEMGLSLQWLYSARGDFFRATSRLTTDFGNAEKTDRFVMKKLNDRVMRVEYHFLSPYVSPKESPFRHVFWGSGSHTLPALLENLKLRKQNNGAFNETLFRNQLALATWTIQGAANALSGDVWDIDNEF
Test: SPR, IgG;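 note: His-tagged TfR captured via immobilized anti-His antibody on a CM5 chip, antibody injected in 3-fold dilution series by single cycle kinetics, 1:1 Langmuir or steady-state fit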
Give bare numbers, in nM.

# example entries with known answers
* hu15G11.v5 IgG (antibody, V domains shown, Human IgG (detected with anti-human Fc gamma); also called humanized 15G11.v5) VH: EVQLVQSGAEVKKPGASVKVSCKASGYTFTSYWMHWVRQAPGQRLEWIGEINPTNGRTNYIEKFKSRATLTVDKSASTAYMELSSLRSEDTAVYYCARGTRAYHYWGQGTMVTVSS VL: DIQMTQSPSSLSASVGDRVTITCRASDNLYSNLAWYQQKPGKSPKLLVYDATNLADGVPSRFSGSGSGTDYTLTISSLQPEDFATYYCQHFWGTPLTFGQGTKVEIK | 3.33
* 7A4 (antibody, V domains shown, also called clone 7A4) VH: QVQLQQSGPELVRPGVSVKISCKGSGYTFTDYAMHWVKQSHAKSLEWIGGISTYFGRTNYNQKFKGRATMTVDKSSSTAYMELARLTSEDSALYYCARGLSGNYVMDYWGQGTSVTVSS VL: DIVLTQSPASLAVSLGQRATISCRASESVDDYGNSFMHWYQQKPGQPPKLLIYRASNLESGIPARFSGSGSRTDFTLTINPVEADDVATYYCQQSNEAPPTFGGGTKLEIR | 0.206

Problem: Consider the binder shown here: 15G11 (antibody, V domains shown, Mouse hybridoma antibody; also called clone 15G11) VH: QVQLQQPGAELVKPGASVKLSCKASGYTFTSYWMHWVKQRPGQGLEWIGEINPTNGRTNYIEKFKSKATLTVDKSSSTAYMQLSSLTSEDSAVYYCARGTRAYHYWGQGTSVTVSS VL: DIQMTQSPASLSVSVGETVTITCRASDNLYSNLAWYQQKQGKSPQLLVYDATNLADGVPSRFSGSGSGTQYSLKINSLQSEDFGTYYCQHFWGTPLTFGAGTKLELK What is its recorded Kd?
Result: 0.992
